- TEST_DETAILS: Quantitative High-Throughput drug screen in 47 multiple myeloma cell lines against the NCATS MIPE library collection: RPMI8226_ATCC cell viability assay (AID 1919871); further: nearly all actives have a fitted effect of over 30% in size
- ASSAY_SETUP: RPMI8226 myeloma viability, CellTiter-Glo ATP luminescence, 48 h; series mostly up to 45.8 µM
Results filed as inconclusive are left out. Activity calls are given as the source filed them. The call rests on the fitted dose curve; in most records, active means well fitted cell-killing curve with a large enough effect; inconclusive means small, poorly fitted or top-dose-only effect, or effect the other way; inactive means no such curve, though single readings can be large or run the other way.
One label from this list, please: 1 for active, 0 for inactive

Answered examples (9):
CCCCOc1c(C(=O)c2c(F)cc(C)cc2F)cnc2n[nH]cc12; 1
COc1cc(C(=O)N2CCC(N3CCN(C)CC3)CC2)ccc1Nc1ncc2c(n1)N(C)c1ccccc1C(=O)N2C; 1
CC(C)(C)c1cnc(CSc2cnc(NC(=O)C3CCNCC3)s2)o1; 1
Cn1c2cc(S(C)=O)sc2c2cnn(Cc3cccc(N)c3)c(=O)c21 (stereo not given); 0
CC1(O)CC(c2nc(-c3ccc4ccc(-c5ccccc5)nc4c3)c3c(N)nccn23)C1 (stereo not given); 1
O=C(O)Cn1nnc(-c2cc(N3CCC(Oc4cc(F)ccc4Br)CC3)no2)n1; 0
COc1cc2nccc(Oc3ccc(NC(=O)C4(C(=O)Nc5ccc(F)cc5)CC4)cc3)c2cc1OC; 1
OCc1ccc(-c2ccc(-c3ccc(CO)s3)o2)s1; 1
Nc1nc(Nc2ccc(S(N)(=O)=O)cc2)nn1C(=O)c1c(F)cccc1F; 1

We now examine a further molecule.
Recorded test outcome, item C=C1C(=CC=C2CCCC3(C)[C@@H]([C@H](C)C=CC=CC(O)(CC)CC)CC[C@@H]23)C[C@@H](O)C[C@@H]1O (stereo not given in full) 1

----------
- ASSAYED_TARGET: Phenylethanolamine N-methyltransferase (Homo sapiens) (UniProt P11086)
- Sequence (P11086 whole entry, looked up): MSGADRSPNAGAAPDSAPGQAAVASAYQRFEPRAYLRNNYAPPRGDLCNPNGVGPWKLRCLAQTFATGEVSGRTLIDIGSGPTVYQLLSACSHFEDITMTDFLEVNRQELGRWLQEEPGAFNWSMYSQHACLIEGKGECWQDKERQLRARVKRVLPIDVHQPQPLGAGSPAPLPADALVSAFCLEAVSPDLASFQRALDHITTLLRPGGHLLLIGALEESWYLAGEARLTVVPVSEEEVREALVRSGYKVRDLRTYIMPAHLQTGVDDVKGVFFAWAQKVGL
- TEST_DETAILS: Confirmatory Screen for Target Class Profiling of Small Molecule Inhibitors of Methyltransferases (AID 1745852)
- ASSAY_SETUP: MTase-Glo luminescence, SAH detection, recombinant enzyme; measured here: PNMT max response; stronger effect = lower value
MEASURE_NAME: activity (%)
Numbers only, in %.

// for each compound in input: emit activity
1. CC[C@@H]1C(=O)N(C)c2cnc(Nc3ccc(C(=O)NC4CCN(C)CC4)cc3OC)nc2N1C1CCCC1
2. Nc1cccc(-c2cc3c(Oc4cccc(O)c4)ncnc3[nH]2)c1
3. Nc1ccccc1NC(=O)c1ccc(CNc2nccc(-c3cccnc3)n2)cc1
4. Cn1c(CNc2ccc(C(=N)N)cc2)nc2cc(C(=O)N(CCC(=O)O)c3ccccn3)ccc21
5. Cc1ccc(C(N)=O)cc1Nc1nccc(-c2cn(C(C)C)c3cnccc23)n1

1: -31.6; 2: -55.3; 3: -7.44; 4: -0.426; 5: -56

----------
- Test system: CP211
- TEST_DETAILS: qHTS profiling for inhibitors of Plasmodium falciparum proliferation (AID 504749); further: nearly all actives have a fitted effect of over 60% in size
- ASSAY_SETUP: P. falciparum in erythrocytes, SYBR Green DNA, 72 h; series mostly up to 28.7 µM
Results filed as inconclusive are left out. Calls of active or inactive are those of the source. The call rests on the fitted dose curve; in most records, active means well fitted inhibition curve with a large enough effect; inconclusive means small, poorly fitted or top-dose-only effect; inactive means flat fitted curve, though single readings scatter.
Outcome field: choose from active, inactive

Take a look at these entries with their results.
O=C(O)CO.[NH2-].[NH2-].[Pt+2]; inactive
CCC1=C[C@@H]2CN(C1)Cc1c([nH]c3ccccc13)[C@@](C(=O)OC)(c1cc3c(cc1OC)N(C)[C@@H]1[C@@](O)(C(=O)OC)[C@H](OC(C)=O)[C@]4(CC)C=CCN5CC[C@]31[C@@H]54)C2; active
COc1c(N2C[C@@H]3CCCN[C@H]3C2)c(F)cc2c(=O)c(C(=O)O)cn(C3CC3)c12; inactive
COC(=O)C[C@](O)(CCCC(C)(C)O)C(=O)O[C@@H]1C(OC)=C[C@]23CCCN2CCc2cc4c(cc2[C@H]13)OCO4; active
O=c1[nH]c(=O)n(C2CCCO2)cc1F (configuration not stated); inactive

For this compound, state the assay outcome: "C[C@H]1C[C@@H]2[C@@H]([C@@H](O)C[C@@]3(C)[C@H]2CC[C@]3(O)C(=O)CO)[C@@]2(C)C=CC(=O)C=C12" inactive

# outcome recorded in this test, key = "Nc1ccc(S(=O)(=O)Nc2ncccn2)cc1" inactive

Every entry's value here was drawn from PubChem BioAssay (NCATS).
